Tested On: PikC (PikCWT; cytochrome P450 CYP107L1) (Streptomyces venezuelae, UniProt O87605)
Construct: pET28a-pikC, expressed in E. coli BL21(DE3), Ni-NTA purified; heme protein
Sequence (O87605 whole entry): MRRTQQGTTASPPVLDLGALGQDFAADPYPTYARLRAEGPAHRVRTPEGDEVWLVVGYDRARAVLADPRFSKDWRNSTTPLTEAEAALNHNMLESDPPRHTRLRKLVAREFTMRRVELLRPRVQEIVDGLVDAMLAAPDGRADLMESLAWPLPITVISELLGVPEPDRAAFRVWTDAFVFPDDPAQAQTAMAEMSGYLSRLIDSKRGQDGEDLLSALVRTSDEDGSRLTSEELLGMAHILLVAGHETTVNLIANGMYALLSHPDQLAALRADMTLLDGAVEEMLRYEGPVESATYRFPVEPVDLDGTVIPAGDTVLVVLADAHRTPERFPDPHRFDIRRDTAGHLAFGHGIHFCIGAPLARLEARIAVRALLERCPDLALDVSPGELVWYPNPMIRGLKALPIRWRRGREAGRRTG
Protocol Notes: UV-vis difference spectral titration ([…]-420 nm)
Endpoint: Kd (µM)
Entry rule: numbers only, all in µM.

CC[C@H]1OC(=O)[C@H](C)C(=O)[C@H](C)[C@@H](O[C@@H]2O[C@H](C)C[C@H](N(C)C)[C@H]2O)[C@@H](C)C[C@@H](C)C(=O)/C=C/[C@H]1C
374

The record that follows has no Kd shown yet.
Data request: Which measured Kd value corresponds to CC[C@H]1OC(=O)[C@H](C)[C@@H](O[C@@H]2O[C@H](C)C[C@H](N(C)C)[C@H]2O)[C@@H](C)C[C@@H](C)C(=O)/C=C/[C@H]1C ?
Data returned: 178

meta.source: paper PMC10039885
